biological target: RORγt (Homo sapiens); assay: Cofactor recruitment test (Alpha Screen, biotinylated SRC-1 peptide); type: biochemical; details: read-out: Signal value inhibitory rate at test compound 1 μM (%)
Sequence (P51449 1-497 isoform P51449-2, species assumed): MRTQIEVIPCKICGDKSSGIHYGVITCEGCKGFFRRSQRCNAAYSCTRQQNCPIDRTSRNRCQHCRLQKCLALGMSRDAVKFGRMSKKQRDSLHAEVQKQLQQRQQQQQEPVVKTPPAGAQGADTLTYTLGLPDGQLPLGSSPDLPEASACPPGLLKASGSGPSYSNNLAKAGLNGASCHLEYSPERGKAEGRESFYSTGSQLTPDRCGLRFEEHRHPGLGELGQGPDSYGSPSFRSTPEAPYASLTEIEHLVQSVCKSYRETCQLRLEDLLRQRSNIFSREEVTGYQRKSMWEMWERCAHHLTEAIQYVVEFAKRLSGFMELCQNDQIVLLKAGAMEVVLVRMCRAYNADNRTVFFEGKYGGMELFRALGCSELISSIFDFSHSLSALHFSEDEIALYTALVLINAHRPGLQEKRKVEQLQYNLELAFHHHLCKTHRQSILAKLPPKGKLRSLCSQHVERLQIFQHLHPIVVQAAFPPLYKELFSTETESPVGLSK

{"smiles input": "COc1ccc2c(c1)CCN(C(=O)Cc1ccc(OC)nc1)[C@H]2C(=O)Nc1ccc(C(C)(C)C)c(F)c1", "inhibition at 1 µM / %": 89.9}
{"smiles input": "COCc1ccc2c(c1)CCN(C(=O)c1cc(O)no1)[C@H]2C(=O)Nc1cc(F)c([Si](C)(C)C)c(F)c1", "inhibition at 1 µM / %": 100}
{"smiles input": "CC[Si](C)(C)c1c(F)cc(NC(=O)[C@H]2c3ccc(OC)nc3CCN2C(=O)c2cc(O)no2)cc1F", "inhibition at 1 µM / %": 99}
{"smiles input": "COc1ccc2c(c1)CCN(C(=O)CCc1cc(O)no1)[C@H]2C(=O)Nc1cc(F)c2c(c1)CCC2(C)C", "inhibition at 1 µM / %": 70}
{"smiles input": "CCOc1ccc2c(n1)CCN(C(=O)c1cc(O)no1)[C@H]2C(=O)Nc1ccc([Si](C)(C)C)c(F)c1", "inhibition at 1 µM / %": 99}
{"smiles input": "COc1ccc2c(c1)CCN(C(=O)Cc1cc(O)no1)[C@H]2C(=O)Nc1ccc(C(C)(C)C)c(C#N)c1", "inhibition at 1 µM / %": 98}
{"smiles input": "COCc1ccc2c(c1)CCN(C(=O)CCCC(=O)O)[C@H]2C(=O)Nc1ccc([Si](C)(C)C)c(F)c1", "inhibition at 1 µM / %": 100}
{"smiles input": "CCOc1ccc2c(c1)CCN(C(=O)Cc1cc(O)no1)[C@H]2C(=O)Nc1cc(F)c(C(C)(C)COC)c(F)c1", "inhibition at 1 µM / %": 96}
{"smiles input": "CCOc1ccc2c(n1)CCN(C(=O)c1cc(O)no1)[C@H]2C(=O)Nc1cc(F)c2c(c1)CCC2(C)C", "inhibition at 1 µM / %": 92}
{"smiles input": "COc1ccc2c(c1)CCN(C(=O)Cc1cc(O)no1)[C@H]2C(=O)Nc1cc(F)c(C(C)(C)C)c(F)c1", "inhibition at 1 µM / %": 88.3}
{"smiles input": "CCOc1ccc2c(n1)CCN(C(=O)c1cc(O)no1)[C@H]2C(=O)Nc1cc(F)c([Si](C)(C)C)c(F)c1", "inhibition at 1 µM / %": 100}
{"smiles input": "COc1ccc2c(c1)CCN(C(=O)CCCC(=O)O)[C@H]2C(=O)Nc1ccc([Si](C)(C)C)c(F)c1", "inhibition at 1 µM / %": 97}
{"smiles input": "COCc1ccc2c(c1)CCN(C(=O)Cc1cc(O)no1)[C@H]2C(=O)Nc1ccc([Si](C)(C)C)c(F)c1", "inhibition at 1 µM / %": 99}
{"smiles input": "COCC(C)(C)c1c(F)cc(NC(=O)[C@H]2c3ccc(OC)cc3CCN2C(=O)Cc2cc(O)no2)cc1F", "inhibition at 1 µM / %": 96}

====

target: RORγt (Homo sapiens); test: Jurkat reporter test (human IL-17 ROR response element luciferase, RORγt vector); format: cell-based; details: test compound 3 μM, Jurkat cells; read-out: Luminescence level inhibitory rate at test compound 3 μM (%)
Documented inhibition at 3 µM across a set of compounds
recorded endpoint: inhibition at 3 µM (%)

{"smiles input": "CCOCC(C)(C)c1c(F)cc(NC(=O)[C@H]2c3ccc(OC)cc3CCN2C(=O)CCCC(=O)O)cc1F", "recorded endpoint": "inhibition at 3 µM", "reported result": 97}
{"smiles input": "CCOc1ccc2c(c1)CCN(C(=O)CCCCC(=O)O)[C@H]2C(=O)Nc1cc(F)c2c(c1)CCC2(C)C", "recorded endpoint": "inhibition at 3 µM", "reported result": 98}
{"smiles input": "COc1ccc2c(c1)CCN(C(=O)Cc1cc(O)no1)[C@H]2C(=O)Nc1cc(F)c2c(c1)CCC2(C)C", "recorded endpoint": "inhibition at 3 µM", "reported result": 99.6}
{"smiles input": "CCOc1ccc2c(c1)CCN(C(=O)Cc1cc(O)no1)[C@H]2C(=O)Nc1ccc(C(C)(C)C)c(F)c1", "recorded endpoint": "inhibition at 3 µM", "reported result": 100}
{"smiles input": "COCc1ccc2c(c1)CCN(C(=O)Cc1cc(O)no1)[C@H]2C(=O)Nc1cc(F)c2c(c1)CCC2(C)C", "recorded endpoint": "inhibition at 3 µM", "reported result": 102}
{"smiles input": "COc1ccc2c(c1)CCN(C(=O)c1cc(O)no1)[C@H]2C(=O)Nc1cc(F)c2c(c1)CCC2(C)C", "recorded endpoint": "inhibition at 3 µM", "reported result": 99}
{"smiles input": "COc1ccc2c(c1)CCN(C(=O)Cc1nnc(C)o1)[C@H]2C(=O)Nc1ccc(C(C)(C)C)c(F)c1", "recorded endpoint": "inhibition at 3 µM", "reported result": 101}
